Target: Bax (Homo sapiens, UniProt Q07812)
Sequence (Q07812 whole entry, species assumed, the tested form may be a part): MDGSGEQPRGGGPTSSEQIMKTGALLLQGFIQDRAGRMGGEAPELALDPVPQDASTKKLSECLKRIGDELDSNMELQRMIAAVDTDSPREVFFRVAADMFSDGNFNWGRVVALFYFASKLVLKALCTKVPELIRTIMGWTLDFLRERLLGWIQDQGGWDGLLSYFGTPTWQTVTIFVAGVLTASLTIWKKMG
Experiment: Co-immunoprecipitation of GFP-Humanin fusion polypeptides with Bax in transfected cells
Format: binding
Set-up: expressed in transfected cells; host or cells: HEK293T; key: +: ability to bind Bax was determined by co-immunoprecipitation assay; −: lacked Bax-binding activity
Settings: GFP-fusion polypeptides, co-immunoprecipitation
Protocol: Humanin (HN) cDNA was sub-cloned into a Green Fluorescence Protein (GFP) expression vector GFP-Cl at the Xhol/Hind III sites, producing a GFP-HN fusion polypeptide. GFP and GFP-HN were transfected into 293T cells with pcDNA3-HA-Bax. […] Co-immunoprecipitation assays were performed using Humanin polypeptides expressed as fusion polypeptides with the Green Fluorescent Protein (GFP) in human cells. […]
No end group written: not given here.

substance: 13-24: GFP-fusion of Humanin truncation, residues 13-24 (TSEIDLPVKRRA; also: fused to GFP; UniProt Q8IVG9 13-24, looked up, fragment)
Bax binding: −

substance: 1-12: GFP-fusion of Humanin truncation, residues 1-12 (MAPRGFSCLLLL; also: fused to GFP; UniProt Q8IVG9 1-12, looked up, fragment)
Bax binding: −

substance: 4-24: GFP-fusion of Humanin truncation, residues 4-24 (RGFSCLLLLTSEIDLPVKRRA; also: fused to GFP; UniProt Q8IVG9 4-24, looked up, fragment)
Bax binding: +
